System: K562
protocol_description: NCI tumour cell line growth inhibition, 48 h
Activity calls are given as the source filed them. Cut-off read from the data, not from the text of the source: active = GI50 up to about 1.1 µM and inactive = higher.
Overview of recorded GI50 for various compounds
reported_endpoint: GI50

[
  {
    "compound": "CCOC(=O)c1cccc(NC(=O)CCl)c1",
    "reported_endpoint": "GI50",
    "measured_result": "3.08 µM (inactive)"
  },
  {
    "compound": "O=C1OC(c2ccc(Cl)cc2)=N/C1=C\\c1ccccc1",
    "reported_endpoint": "GI50",
    "measured_result": "> 100 µM (inactive)"
  },
  {
    "compound": "CC(=O)C(I(OS(=O)(=O)c1ccc(C)cc1)c1ccccc1)=P(c1ccccc1)(c1ccccc1)c1ccccc1",
    "reported_endpoint": "GI50",
    "measured_result": "30.6 µM (inactive)"
  },
  {
    "compound": "Cc1ccc2nc(CN3CCCC(O)C3)cc(=O)n2c1 (stereo unspecified)",
    "reported_endpoint": "GI50",
    "measured_result": "> 100 µM (inactive)"
  },
  {
    "compound": "CC(C)SC(C)(NC(=O)C1C(C)(C)CCC1(C)C)C(=O)O (stereo unspecified)",
    "reported_endpoint": "GI50",
    "measured_result": "> 100 µM (inactive)"
  },
  {
    "compound": "Cc1cc(C)c(N[S+]([O-])c2ccc(Cl)cc2)c(C)c1 (stereo unspecified)",
    "reported_endpoint": "GI50",
    "measured_result": "> 100 µM (inactive)"
  },
  {
    "compound": "C=CC1(O)CCCC=C1COCc1ccccc1 (stereo unspecified)",
    "reported_endpoint": "GI50",
    "measured_result": "32.2 µM (inactive)"
  },
  {
    "compound": "COc1ccc2c(c1)c(CC(=O)O)c(C)n2C(=O)c1ccc(Cl)cc1",
    "reported_endpoint": "GI50",
    "measured_result": "13.7 µM (inactive)"
  },
  {
    "compound": "O=C(Cn1c2ccc(Br)cc2c2nc3ccccc3nc21)Nc1ccccc1",
    "reported_endpoint": "GI50",
    "measured_result": "38.8 µM (inactive)"
  },
  {
    "compound": "CC(C(=O)N1c2ccccc2Sc2ccccc21)N1c2ccccc2Sc2ccccc21 (stereo unspecified)",
    "reported_endpoint": "GI50",
    "measured_result": "84.1 µM (inactive)"
  },
  {
    "compound": "COc1cccc2c1/c(=C/c1ccc(N(C)C)cc1)c1cc(-c3ccccc3)[n+](C)n12",
    "reported_endpoint": "GI50",
    "measured_result": "0.0493 µM (active)"
  }
]

* * *

Tested on: HL-60
protocol_description: NCI tumour cell line growth inhibition, 48 h
The source made the active and inactive calls. Rule as the data show it: active = GI50 up to about 1.1 µM and inactive = higher.
Listed next: entries and their corresponding GI50.
reported_endpoint: GI50

[
  {
    "molecule": "CCN(CC)C(=S)Oc1cc2oc(=O)cc(C)c2cc1Cl",
    "reported_endpoint": "GI50",
    "measured_result": "> 100 µM (inactive)"
  },
  {
    "molecule": "C[C@H]1[C@H](C)CC[C@]2(C(=O)OC3OC(CO)C(O)C(O)C3O)CC[C@]3(C)C(=CC[C@@H]4[C@@]5(C)C[C@@H](O)[C@@H]6OC(=O)c7cc(O)c(O)c(O)c7-c7c(cc(O)c(O)c7O)C(=O)OC[C@@]6(CO)[C@@H]5CC[C@]43C)[C@H]12 (stereo partly drawn)",
    "reported_endpoint": "GI50",
    "measured_result": "39.2 µM (inactive)"
  },
  {
    "molecule": "COc1ccc(NC(=O)CC(=O)NNC(Sc2ccccc2)c2cc(/N=N/c3ccc(Br)cc3)ccc2O)cc1 (stereo not drawn)",
    "reported_endpoint": "GI50",
    "measured_result": "3.61 µM (inactive)"
  }
]

* * *

Test system: RPMI-8226
protocol_description: NCI tumour cell line growth inhibition, 48 h
The source made the active and inactive calls. Rule as the data show it: active = GI50 up to about 1.1 µM and inactive = higher.
Listed here are molecules together with their documented GI50.

[
  {
    "molecule": "CC(N)C(C)Cc1ccccc1 (stereo unspecified)",
    "GI50": "> 100 µM (inactive)"
  },
  {
    "molecule": "O=C(CSCC(=O)N/N=C/c1cc(I)cc(I)c1O)N/N=C/c1cc(I)cc(I)c1O",
    "GI50": "26.5 µM (inactive)"
  },
  {
    "molecule": "C=CCN1C(=O)/C(=C/c2ccc(OC)cc2)NC1=S",
    "GI50": "35.2 µM (inactive)"
  },
  {
    "molecule": "O=C(/C=C/c1ccc(Cl)cc1)Oc1ccc(/C=C2\\CCCCC2=O)cc1",
    "GI50": "> 100 µM (inactive)"
  },
  {
    "molecule": "Cc1cc(S(=O)(=O)/N=C(\\NN)NNc2cccc(C(F)(F)F)n2)c(S)cc1Cl",
    "GI50": "32.1 µM (inactive)"
  },
  {
    "molecule": "c1cc(-c2cscc2-c2ccsc2)cs1",
    "GI50": "34.9 µM (inactive)"
  },
  {
    "molecule": "CC(OC(C)(C)C)[C@H](NC(=O)OC(C)(C)C)C(=O)O (stereo partly specified)",
    "GI50": "> 100 µM (inactive)"
  },
  {
    "molecule": "c1ccc(Nc2nnc(CSc3nc(-c4ccccc4)c(-c4ccccc4)[nH]3)s2)cc1",
    "GI50": "11.5 µM (inactive)"
  },
  {
    "molecule": "CSc1nc2c(N)ncnc2n1C",
    "GI50": "> 100 µM (inactive)"
  },
  {
    "molecule": "CNC(=S)N/N=C(\\C)c1cc(OC)ccc1O",
    "GI50": "> 31.3 µM (inactive)"
  },
  {
    "molecule": "COc1ccc(-c2c(C#N)c(S)n(NS(=O)(=O)c3ccc(C)cc3)c(=O)c2C#N)cc1",
    "GI50": "3.42 µM (inactive)"
  }
]

* * *

Tested on: U-251
protocol_description: NCI tumour cell line growth inhibition, 48 h
Activity calls are given as the source filed them. No stated cut-off is given here; in the data, active = GI50 up to about 1.1 µM and inactive = higher.
Outcomes: true (1) for active, false (0) for inactive

[
  {
    "compound": "CN1C(c2ccccc2)CC(O)CC1c1ccccc1 (stereo not drawn)",
    "class": "false (0)"
  },
  {
    "compound": "CCNC(C)(C)C(SS)c1ccc(Br)cc1 (stereo not drawn)",
    "class": "false (0)"
  },
  {
    "compound": "O=c1[nH]cc(C(F)(C(F)(F)F)C(F)(F)F)c(=O)[nH]1",
    "class": "false (0)"
  },
  {
    "compound": "NS(=O)(=O)c1cc(S(N)(=O)=O)c(NC(=O)Nc2ccc(Cl)c(Cl)c2)c(Cl)c1Cl",
    "class": "false (0)"
  },
  {
    "compound": "O=c1c(O)c(-c2ccccc2)n(O)c2ccc(Cl)cc12",
    "class": "false (0)"
  },
  {
    "compound": "CC(C)(C)C#C[P+](c1ccccc1)(c1ccccc1)c1ccccc1",
    "class": "true (1)"
  },
  {
    "compound": "c1cc(CN2CCNCCNCCNCC2)cc(CN2CCNCCNCCNCC2)c1",
    "class": "false (0)"
  },
  {
    "compound": "CCCCCCCCCCCCCCCC(=O)OCCOCCOCCOCCOCCOC(=O)CCCCCCCCCCCCCCC",
    "class": "false (0)"
  },
  {
    "compound": "O=c1[nH]c2c(Nc3c4ccccc4nc4ccccc34)c([N+](=O)[O-])c(Nc3c4ccccc4nc4ccccc34)c([N+](=O)[O-])c2[nH]1",
    "class": "false (0)"
  },
  {
    "compound": "COc1ccc2c3c1OC1C4(CCC5C(C2)N(CC2CC2)CCC351)OCCO4 (stereo not drawn)",
    "class": "false (0)"
  },
  {
    "compound": "Cc1cc(SCC(=O)c2ccc(Br)cc2)cc(C)[o+]1",
    "class": "false (0)"
  },
  {
    "compound": "COc1ccc(C2CC(c3sc(Nc4ccc(C)cc4)nc3C)=NN2)cc1 (stereo not drawn)",
    "class": "false (0)"
  },
  {
    "compound": "N=C(N)N/N=C\\c1ccc(C2CCNCC2)cc1",
    "class": "false (0)"
  },
  {
    "compound": "COc1cc(-c2[nH]ccc2Cl)oc1C1=C2N=C3C=C2C(C(C)C)C1CCCCCCCC3 (stereo not drawn)",
    "class": "true (1)"
  },
  {
    "compound": "CCOC(=N)CC(=O)Nc1ccccc1CC",
    "class": "false (0)"
  },
  {
    "compound": "CSCCC(N)P(C)(=O)O (stereo not drawn)",
    "class": "false (0)"
  },
  {
    "compound": "COC(=O)/C(C#N)=C(\\Nc1ccccc1)N1CCOCC1",
    "class": "false (0)"
  },
  {
    "compound": "COc1ccc(NC(=O)CC(=O)NNC(Sc2ccccc2)c2cc(/N=N/c3ccc(Br)cc3)ccc2O)cc1 (stereo not drawn)",
    "class": "false (0)"
  },
  {
    "compound": "O=c1c2cc(Cl)ccc2[nH]c2cc(O)cc(O)c12",
    "class": "false (0)"
  },
  {
    "compound": "CC(Oc1ccc2cc(C(=O)c3ccccc3)c(=O)oc2c1)C(=O)O (stereo not drawn)",
    "class": "false (0)"
  },
  {
    "compound": "O=C1SC(c2ccc(Cl)cc2)(c2ccc(Cl)cc2)c2ccccc21",
    "class": "false (0)"
  },
  {
    "compound": "CCCCC1Cc2ccccc2-c2nc3ccccc3n21 (stereo not drawn)",
    "class": "false (0)"
  },
  {
    "compound": "CC(=O)NNc1nc(C)c(C(=O)/C=C/c2ccc(Cl)c(Cl)c2)s1",
    "class": "false (0)"
  }
]

src = ChEMBL document CHEMBL1201862
